target: N-terminally GST-tagged HCK (75-526) (Homo sapiens (Human), UniProt P08631); experiment: HCK Kinase Assay (ProFluor Src-Family Kinase Assay); assay type: biochemical; conditions: HCK inhibitory activity, 50 μM ATP; read-out: HCK Activity
Sequence (P08631 75-526): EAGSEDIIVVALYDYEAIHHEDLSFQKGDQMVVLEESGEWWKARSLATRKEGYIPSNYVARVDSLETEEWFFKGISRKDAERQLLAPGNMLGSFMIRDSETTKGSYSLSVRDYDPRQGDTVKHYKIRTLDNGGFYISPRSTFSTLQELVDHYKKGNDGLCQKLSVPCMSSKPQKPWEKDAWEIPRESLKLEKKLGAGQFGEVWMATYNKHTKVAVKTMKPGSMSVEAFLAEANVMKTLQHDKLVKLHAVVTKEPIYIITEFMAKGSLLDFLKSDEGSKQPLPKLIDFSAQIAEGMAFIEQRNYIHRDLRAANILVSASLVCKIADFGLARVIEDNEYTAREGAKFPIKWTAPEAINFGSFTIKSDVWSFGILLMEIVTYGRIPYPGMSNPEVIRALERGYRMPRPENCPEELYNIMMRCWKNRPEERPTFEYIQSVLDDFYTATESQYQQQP
Item-by-item account of IC50

>  <compound>
COC(=O)CC1(N)CCC(n2cc(-c3ccc(Oc4ccccc4)cc3)c3c(N)ncnc32)CC1 (centres unmarked)

>  <test_target>
N-terminally GST-tagged HCK (75-526) (Homo sapiens (Human), UniProt P08631)

>  <result>
0.25 to 10 µM

$$$$
>  <compound>
CN1CCC(N2CCC(n3nc(-c4ccc(Oc5ccccc5)cc4F)c4c(N)ncnc43)CC2)CC1

>  <test_target>
N-terminally GST-tagged HCK (75-526) (Homo sapiens (Human), UniProt P08631)

>  <result>
< 0.05 µM

$$$$
>  <compound>
Nc1ncnc2c1c(-c1ccc(Oc3ccccc3)cc1)cn2[C@H]1CC[C@@H](N2CCC(N)CC2)CC1

>  <test_target>
N-terminally GST-tagged HCK (75-526) (Homo sapiens (Human), UniProt P08631)

>  <result>
0.05 to 0.25 µM

$$$$
>  <compound>
CN1CCOC(C2CCC(n3cc(-c4ccc(Oc5ccccc5)cc4)c4c(N)ncnc43)CC2)C1=O (centres unmarked)

>  <test_target>
N-terminally GST-tagged HCK (75-526) (Homo sapiens (Human), UniProt P08631)

>  <result>
0.05 to 0.25 µM

$$$$
>  <compound>
Nc1ncnc2c1c(-c1ccc(Oc3ccccc3)cc1)cn2[C@H]1CC[C@@H](N2CCNCC2=O)CC1

>  <test_target>
N-terminally GST-tagged HCK (75-526) (Homo sapiens (Human), UniProt P08631)

>  <result>
0.05 to 0.25 µM

$$$$
>  <compound>
C[C@@H]1CN([C@H]2CC[C@@H](n3cc(-c4ccc(Oc5ccccc5)cc4)c4c(N)ncnc43)CC2)CCN1C

>  <test_target>
N-terminally GST-tagged HCK (75-526) (Homo sapiens (Human), UniProt P08631)

>  <result>
< 0.05 µM

$$$$
>  <compound>
C[C@@H]1CN([C@H]2CC[C@@H](n3cc(-c4ccc(Oc5ccccc5)cc4)c4c(N)ncnc43)CC2)C[C@H](C)N1

>  <test_target>
N-terminally GST-tagged HCK (75-526) (Homo sapiens (Human), UniProt P08631)

>  <result>
< 0.05 µM

$$$$
>  <compound>
CC(C)(O)CN1CCN([C@H]2CC[C@H](n3cc(-c4ccc(Oc5ccccc5)cc4)c4c(N)ncnc43)CC2)CC1

>  <test_target>
N-terminally GST-tagged HCK (75-526) (Homo sapiens (Human), UniProt P08631)

>  <result>
< 0.05 µM

$$$$

Reported IC50 ( Nc1ncnc2c1c(-c1ccc(Oc3ccccc3)cc1)cn2[C@H]1CC[C@@H](N2CCN3C(=O)CCC3C2)CC1 (some centres unmarked) ) = < 0.05 µM

Reported IC50 ( CN1CCN([C@H]2CC[C@H](n3cc(-c4ccc(Oc5ccccc5)cc4)c4c(N)ncnc43)CC2)CC1CO (some centres unmarked) ) = < 0.05 µM

Reported IC50 ( `CN(C)[C@@H]1CN([C@H]2CC[C@@H](n3cc(-c4ccc(Oc5ccccc5)cc4F)c4c(N)ncnc43)CC2)C[C@H]1O` ) = 0.05 to 0.25 µM

Reported IC50 ( `COc1cc(-c2cn([C@H]3CC[C@H](N4CCN[C@@H](C)C4)CC3)c3ncnc(N)c23)ccc1Oc1ccccc1` ) = < 0.05 µM

Reported IC50 ( `CN1CCN([C@H]2CC[C@H](c3cc(-c4ccc(Oc5ccccc5)cc4)c4c(N)ncnn43)CC2)CC1` ) = < 0.05 µM

Reported IC50 ( `CC(C)N1CCC(N2CCC(n3nc(-c4ccc(Oc5ccccc5)cc4F)c4c(N)ncnc43)CC2)CC1` ) = < 0.05 µM

---

Item-by-item account of pIC50
molecular target: N-terminally GST-tagged HCK (75-526) (Homo sapiens (Human)); experiment: HCK Kinase Assay (ProFluor Src-Family Kinase Assay); format: biochemical
pIC50: −log10 of the molar value.

>  <compound>
[2H]C([2H])([2H])N1CCN([C@H]2CC[C@@H](n3cc(-c4ccc(Oc5ccccc5)cc4)c4c(N)ncnc43)CC2)CC1 (single isomer, unassigned) [Example 4]

>  <pIC50>
5.00 to 6.60

$$$$

Reported pIC50 ( CN1CCN([C@H]2CC[C@@H](n3cc(-c4ccc(Oc5ccccc5)cc4)c4c(N)ncnc43)CC2)CC1 [Example 2] ) = 6.60 to 7.30

Reported pIC50 ( [2H]C([2H])([2H])N1CCN([C@H]2CC[C@H](n3cc(-c4ccc(Oc5ccccc5)cc4)c4c(N)ncnc43)CC2)CC1 (single isomer, unassigned) [Example 3] ) = > 7.30

---

target: N-terminally GST-tagged HCK (75-526) (Homo sapiens (Human)); test: HCK Kinase Assay (ProFluor Src-Family Kinase Assay); assay type: biochemical; settings: HCK inhibitory activity, 50 μM ATP; read-out: HCK Activity
pIC50: −log10 of the molar value.
measured_parameter: pIC50

// worked examples, pIC50 included
>  <molecule>
CC1(N)CCN([C@H]2CC[C@H](n3cc(-c4ccc(Oc5ccccc5)cc4)c4c(N)ncnc43)CC2)CC1

>  <test_target>
N-terminally GST-tagged HCK (75-526) (Homo sapiens (Human))

>  <pIC50>
6.60 to 7.30

$$$$
>  <molecule>
Nc1ncnc2c1c(-c1ccc(Oc3ccccc3)cc1)cn2[C@H]1CC[C@H](N2CCNC3(CC3)C2)CC1

>  <test_target>
N-terminally GST-tagged HCK (75-526) (Homo sapiens (Human))

>  <pIC50>
> 7.30

$$$$
>  <molecule>
CN(C)[C@H]1CN([C@H]2CC[C@@H](n3cc(-c4ccc(Oc5ccccc5)cc4)c4c(N)ncnc43)CC2)C[C@H]1O

>  <test_target>
N-terminally GST-tagged HCK (75-526) (Homo sapiens (Human))

>  <pIC50>
> 7.30

$$$$

Query C[C@H]1CC(N2CCC(n3cc(-c4ccc(Oc5ccccc5)cc4)c4c(N)ncnc43)CC2)CCN1 (stereo partly shown) on N-terminally GST-tagged HCK (75-526) (Homo sapiens (Human)); pIC50 returned: > 7.30

Query Nc1ncnc2c1c(-c1ccc(Oc3ccccc3)cc1)cn2C1CCN(C2CCNC(CO)C2)CC1 (stereo not shown) on N-terminally GST-tagged HCK (75-526) (Homo sapiens (Human)); pIC50 returned: > 7.30

Query `C[C@@H]1CN([C@H]2CC[C@H](n3cc(-c4ccc(Oc5ccccc5)cc4)c4c(N)ncnc43)CC2)C[C@H](C)N1` on N-terminally GST-tagged HCK (75-526) (Homo sapiens (Human)); pIC50 returned: 6.60 to 7.30

Query `C[C@H]1CN([C@H]2CC[C@H](n3cc(-c4ccc(NC(=O)Nc5cc(C(C)(C)C)on5)cc4)c4c(N)ncnc43)CC2)CCN1` on N-terminally GST-tagged HCK (75-526) (Homo sapiens (Human)); pIC50 returned: > 7.30

---

Item-by-item account of IC50
target: N-terminally GST-tagged HCK (75-526) (Homo sapiens (Human)); assay: HCK Kinase Assay (ProFluor Src-Family Kinase Assay); format: biochemical; conditions: HCK inhibitory activity, 50 μM ATP; read-out: HCK Activity

>  <compound>
Nc1ncnc2c1c(-c1ccc(Oc3ccccc3)cc1)cn2[C@H]1CC[C@@H](N2CCC3(CCNC3)C2)CC1 (relative stereo)

>  <measured_parameter>
IC50

>  <result>
50 to 250 nM

$$$$
>  <compound>
Nc1ncnc2c1c(-c1ccc(Oc3ccccc3)cc1)cn2C1CCN(C2CCCC(N)C2)CC1 (stereo not shown)

>  <measured_parameter>
IC50

>  <result>
< 50 nM

$$$$

Reported IC50 ( `Nc1ncnc2c1c(-c1ccc(Oc3ccccc3)cc1)cn2[C@H]1CC[C@H](N2CCN3CCC[C@H]3C2)CC1` ) = < 50 nM

Reported IC50 ( `Nc1ncnc2c1c(-c1ccc(Oc3ccccc3)cc1)cn2[C@H]1CC[C@@H](N2CCC(S(N)(=O)=O)CC2)CC1` ) = 50 to 250 nM

---

target: N-terminally GST-tagged HCK (75-526) (Homo sapiens (Human)); assay: HCK Kinase Assay (ProFluor Src-Family Kinase Assay); format: biochemical; conditions: HCK inhibitory activity, 50 μM ATP; read-out: HCK Activity
pIC50: −log10 of the molar value.
Item-by-item account of pIC50

// worked examples, pIC50 included
>  <compound>
C[C@@H]1CN([C@H]2CC[C@H](n3nc(-c4ccc(Oc5ccccc5)cc4F)c4c(N)ncnc43)CC2)CCN1 [Example 17]

>  <pIC50>
> 7.30

$$$$
>  <compound>
CCOC(=O)C1CC12CCC(n1cc(-c3ccc(Oc4ccccc4)cc3)c3c(N)ncnc31)CC2 (stereo not shown) [Example 99]

>  <pIC50>
> 7.30

$$$$
>  <compound>
CC[C@H]1CN([C@H]2CC[C@@H](n3nc(-c4ccc(Oc5ccccc5)cc4F)c4c(N)ncnc43)CC2)CCN1 [Example 32]

>  <pIC50>
6.60 to 7.30

$$$$
>  <compound>
CN1CCN([C@H]2CC[C@H](n3cc(-c4ccc(Oc5cccnn5)cc4)c4c(N)ncnc43)CC2)CC1 [Example 116]

>  <pIC50>
> 7.30

$$$$
>  <compound>
CN1CCN([C@H]2CC[C@@H](c3nc(-c4ccc(Oc5ccccc5)cc4)c4c(N)nccn43)CC2)CC1 [Example 174]

>  <pIC50>
5.00 to 6.60

$$$$

Reported pIC50 ( CN1CCN([C@H]2CC[C@H](n3cc(-c4ccc(Oc5ccccc5)cc4)c4c(N)ncnc43)CC2)CC1C(=O)O (stereo partly shown) [Example 34] ) = > 7.30

Reported pIC50 ( CN1CCN([C@H]2CC[C@H](n3cc(-c4ccc(Oc5ccccc5)cc4)c4c(N)ncnc43)CC2)CC1(C)C [Example 27] ) = > 7.30
